Would you kindly list NF-kB reporter for each of these compounds?
System: RAW-Dual (murine macrophage reporter line)
assay.details: NF-kB reporter (SEAP) activity fold change vs agonist alone; higher = enhanced NF-kB activity
run.parameters: modulator concentration 10 µM; agonist: MPLA […]
Please state the value as a number alone, without comment.

[in] Determine its reported NF-kB reporter: O=C(CSC1CC(=O)N(c2ccc(C(=O)O)cc2)C1=O)Nc1ccc(Cl)cc1 (stereo not drawn)
[out] 1.05

[in] Please report NF-kB reporter for the following compound: COc1ccc(N(CC(=O)NCCSCc2cccc(Cl)c2)S(C)(=O)=O)cc1Cl
[out] 0.831

[in] Quickly give me recorded NF-kB reporter for Clc1ccc2nsnc2c1NC1=NCCN1
[out] 0.958

----------
System: RAW-Dual (murine macrophage reporter line)
assay.details: IRF reporter (Lucia luciferase) activity fold change vs agonist alone; higher = enhanced IRF activity
run.parameters: modulator concentration 10 µM; agonist: 3'3'-cGAMP 10 ug/mL
readout.label: IRF reporter
Answer with the value's number alone.

[in] Give reported IRF reporter for c1ccc2nc3c(cc(N4CCOCC4)c4ccccc43)nc2c1 (RAW-Dual (murine macrophage reporter line))
[out] 0.924

[in] GET IRF reporter | system: RAW-Dual (murine macrophage reporter line) | item: Cc1c(OCC(F)(F)F)ccnc1CS(=O)c1nc2ccccc2[nH]1 (stereo unspecified)
[out] 0.699

[in] State measured IRF reporter of the compound Cc1cnc(C(=O)O)c[n+]1[O-] with RAW-Dual (murine macrophage reporter line).
[out] 0.962

[in] Given COCCOC(=O)C1=C(C)NC(=O)NC1c1cc(OC)c(OC)c(OC)c1 (stereo unspecified) , report its IRF reporter on RAW-Dual (murine macrophage reporter line).
[out] 0.956

[in] Please look at Cc1cccc(C(=O)ON=C(c2ccncc2)c2ccc([N+](=O)[O-])cc2)c1 and tell me its recorded IRF reporter on RAW-Dual (murine macrophage reporter line).
[out] 1.03

[in] Please look at CC(C)c1ccc2oc3nc(N)c(C(=O)O)cc3c(=O)c2c1 and tell me its recorded IRF reporter on RAW-Dual (murine macrophage reporter line).
[out] 0.858

[in] Enter recorded IRF reporter with RAW-Dual (murine macrophage reporter line) for CC1CCN(c2cc(N3CCNCC3)ncn2)CC1 here.
[out] 0.932

[in] Output reported IRF reporter of the compound Cc1ccc(N2C(=O)C(Cl)=C(Nc3cccc(C)c3C)C2=O)cc1Cl on RAW-Dual (murine macrophage reporter line).
[out] 0.549

[in] Look up and report IRF reporter, with RAW-Dual (murine macrophage reporter line) as system, for O=C(NN=Cc1c(O)ccc2ccccc12)c1ccccc1I
[out] 0.847

[in] State IRF reporter on RAW-Dual (murine macrophage reporter line). Entry: O=C(CCCn1nc(-c2ccc(F)cc2)ccc1=O)Nc1ccc(C(F)(F)F)cc1
[out] 0.346

[in] Send back RAW-Dual (murine macrophage reporter line) IRF reporter of NC(=O)OCC(COC(N)=O)c1ccccc1 only.
[out] 1.16

[in] Using RAW-Dual (murine macrophage reporter line) as the test system, report measured IRF reporter of CC(=O)Nc1ccc(S(=O)(=O)N2CCC(Oc3cc(C)nc(C)n3)C2)cc1 (stereo unspecified) .
[out] 0.998

[in] Name the value of IRF reporter reported for CSc1nc2cccc(F)c2c(=O)n1C1CC1 when tested on RAW-Dual (murine macrophage reporter line).
[out] 1.09

[in] Write down the reported IRF reporter (system: RAW-Dual (murine macrophage reporter line)) of CC1=CC(=NS(=O)(=O)c2ccc(C)cc2)C=C(Cl)C1=O
[out] 0.451

[in] Give IRF reporter for Cl.NCCCC(N)(C(=O)O)C(F)F.O (stereo unspecified) tested on RAW-Dual (murine macrophage reporter line).
[out] 0.922

[in] Enter IRF reporter (test system RAW-Dual (murine macrophage reporter line)) for CCCOc1ccc(C=C2SC(N3CCN(c4ccccc4C)CC3)=NC2=O)cc1
[out] 0.954
